Biological target: T1, human NMUR2 (human, UniProt Q9GZQ4 1-415)
T1 construct: whole, on cells; Stably expressed in cells (FLIPR); also called hNMUR2; human R2
T1 sequence (Q9GZQ4 whole entry): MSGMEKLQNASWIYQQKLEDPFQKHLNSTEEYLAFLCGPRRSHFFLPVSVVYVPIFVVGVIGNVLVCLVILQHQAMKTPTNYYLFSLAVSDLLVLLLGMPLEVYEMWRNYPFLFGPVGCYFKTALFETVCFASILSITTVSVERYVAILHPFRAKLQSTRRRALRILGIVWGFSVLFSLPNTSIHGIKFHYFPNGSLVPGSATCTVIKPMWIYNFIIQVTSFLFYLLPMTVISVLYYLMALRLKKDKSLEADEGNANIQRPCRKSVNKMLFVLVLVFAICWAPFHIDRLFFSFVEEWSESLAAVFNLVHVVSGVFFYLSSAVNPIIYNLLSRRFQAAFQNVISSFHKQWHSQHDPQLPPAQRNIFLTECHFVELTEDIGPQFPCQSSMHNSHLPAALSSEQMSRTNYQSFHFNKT
Assay: 125I-hNMU-25 displacement, HEK cell membranes
Non-standard residues stand in square brackets, D forms with d. No end group written: not given here. *: point of attachment. Succinimide(1-Et,3-yl) = CCN1C(=O)CC(*)C1=O; hArg = N=C(N)NCCCC[C@H](N)C(=O)O
VALUE KIND: IC50 (nM)
The reply should be a number in nM, with the unit left off.

Tell me measured IC50 for FWLFRA[hArg]N-NH2 (N-terminus assumed; SMILES CC(C)C[C@H](NC(=O)[C@H](Cc1c[nH]c2ccccc12)NC(=O)[C@@H](N)Cc1ccccc1)C(=O)N[C@@H](Cc1ccccc1)C(=O)N[C@@H](CCCNC(=N)N)C(=O)N[C@@H](C)C(=O)N[C@@H](CCCCNC(=N)N)C(=O)N[C@@H](CC(N)=O)C(N)=O) [neuromedin U receptor agonist J] please. 150

Write down IC50 measured for item FRVDEEFQSPFASQSRGYF[dL]WRPRN-NH2 (not fully specified) [neuromedin U receptor agonist H] 780

Look up and report measured IC50 for this entry: FRVDEEFQSPFASQSRGYFWRPRN-NH2 [neuromedin U receptor agonist G] 31

Respond only with IC50 recorded for FALFRPRN-NH2 [neuromedin U receptor agonist N] 22

Identify measured IC50 corresponding to Ac-C(Succinimide(1-Et,3-yl))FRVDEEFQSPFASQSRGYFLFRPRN-NH2 [NMU8] 0.3
